Target: T1, human OX40 on cells (CHO-hOX40, 293HEK-hOX40, Jurkat-hOX40, activated primary CD4+ T cells) (human, UniProt P43489 29-277)
T1 construct: whole, on cells; The cell type is told in each assay; also called CHO-OX40
T1 sequence (looked up): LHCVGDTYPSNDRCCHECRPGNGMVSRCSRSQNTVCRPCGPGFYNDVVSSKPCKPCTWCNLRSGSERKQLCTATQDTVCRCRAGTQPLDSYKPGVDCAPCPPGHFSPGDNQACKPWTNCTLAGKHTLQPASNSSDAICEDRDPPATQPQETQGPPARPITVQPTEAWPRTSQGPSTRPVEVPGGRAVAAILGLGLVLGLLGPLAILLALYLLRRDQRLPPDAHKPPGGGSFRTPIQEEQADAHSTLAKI
Experiment: flow cytometry, CHO-hOX40, 100 nM blocker, competitor OX40L-hFc-fluorescein

- Binder: "ADI-20066, IgG1 format (antibody, V domains shown, Made in yeast) VH: QLQLQESGPGLVKPSETLSLTCTVSGGSISSSSYYWGWIRQPPGKGLEWIGSIYYSGSTYYNPSLKSRVTISVDTSKNQFSLKLSSVTAADTAVYYCARDPGYSASPNWFDPWGQGTLVTVSS VL: EIVLTQSPGTLSLSPGERATLSCRASQSVSSSFLAWYQQKPGQAPRLLIYGASSRATGIPDRFSGSGSGTDFTLTISRLEPEDFAVYYCQQYDVFPITFGGGTKVEIKR"
  MFI of OX40L signal on CHO-OX40 cells / MFI: 32800

Recorded values, source patent US20200140562A1.
